Catalogue of N writhes values
Test system: mouse abdominal contraction (writhing) induced by acetic acid
Assay: Abdominal constriction test induced by acetic acid
Format: in vivo
Details: 20 mg/kg per os
measurementType: N writhes

[[record]]
compound = "Cc1c(CCOCCO)cc(-c2ccc(S(C)(=O)=O)cc2)n1-c1ccc(F)c(F)c1"
systemundertest = "mouse abdominal contraction (writhing) induced by acetic acid"
result = "24.8 ± 3.0"

[[record]]
compound = "Cc1c(CCOCCO[N+](=O)[O-])cc(-c2ccc(S(C)(=O)=O)cc2)n1-c1ccc(F)cc1"
systemundertest = "mouse abdominal contraction (writhing) induced by acetic acid"
result = "15.2 ± 3.3"

[[record]]
compound = "Cc1c(CC(=O)NC(CCO[N+](=O)[O-])C(=O)O)cc(-c2ccc(S(C)(=O)=O)cc2)n1-c1ccc(F)cc1 (racemic)"
systemundertest = "mouse abdominal contraction (writhing) induced by acetic acid"
result = "14.6 ± 2.7"

[[record]]
compound = "Cc1c(CCOCCO)cc(-c2ccc(S(C)(=O)=O)cc2)n1-c1cccc(F)c1"
systemundertest = "mouse abdominal contraction (writhing) induced by acetic acid"
result = "26.8 ± 3.2"

[[record]]
compound = "Cc1c(CC(=O)OCCO[N+](=O)[O-])cc(-c2ccc(S(C)(=O)=O)cc2)n1-c1cccc(F)c1"
systemundertest = "mouse abdominal contraction (writhing) induced by acetic acid"
result = "17.1 ± 2.3"

[[record]]
compound = "Cc1c(CCOCCO[N+](=O)[O-])cc(-c2ccc(S(C)(=O)=O)cc2)n1-c1ccc(F)c(F)c1"
systemundertest = "mouse abdominal contraction (writhing) induced by acetic acid"
result = "26.3 ± 3.4"

[[record]]
compound = "Cc1c(C(N)C(=O)OCCCO[N+](=O)[O-])cc(-c2ccc(S(C)(=O)=O)cc2)n1-c1ccc(F)cc1 (racemic)"
systemundertest = "mouse abdominal contraction (writhing) induced by acetic acid"
result = "18.1 ± 3.0"

[[record]]
compound = "COc1ccc(-n2c(-c3ccc(S(C)(=O)=O)cc3)cc(CC(=O)OCCCO[N+](=O)[O-])c2C)cc1"
systemundertest = "mouse abdominal contraction (writhing) induced by acetic acid"
result = "18.4 ± 3.1"

